Record set: pIC50 | human ACC2 (Homo sapiens (Human)) | literature, multiple sources.
pIC50: −log10 of the molar value.
attribute.measured: pIC50

Sample answers from the record:
CC(=O)NC(C)Cc1ccc(C#Cc2cnc(NCC3CC3)nc2)cc1 (centres unmarked); 6.35
CC(=O)N[C@@H](C)c1ccc(O[C@@H]2CCN(c3nccc(N(C)CC4CC4)c3F)C2)cc1; 6.41
CCCOc1cc(C#Cc2ccc(C(C)C(=O)NCC)cc2)ccn1 (centres unmarked); 6.57
CCOc1ccc(C#Cc2ccc(CC(C)NC(C)=O)cc2)nc1 (centres unmarked); 6.35

1 = CCOc1ccc(C#Cc2ccc(C(C)C(=O)Nc3cc(C)on3)cc2)cc1 (centres unmarked)
2 = C[C@H](NC(=O)C(F)F)c1ccc(C2CN(c3ccc(OCC4CC4)cc3)C2)cc1
3 = CC(Cc1ccc(C#Cc2ccc(OC(F)F)cc2)cc1)NC(=O)C1CC1 (centres unmarked)
// query Rank by pIC50 (largest to smallest). Your reply should list the labels following the order given in the request.
// result 1, 2, 3

* * *

pIC50: −log10 of the molar value.
Record set: pIC50 | human ACC2 (Homo sapiens (Human)) | literature, multiple sources.
attribute.measured: pIC50

CC(=O)NC(C)Cc1ccc(C#Cc2ccnc(N3CCCC3)n2)cc1 (centres unmarked); 6.03
CCCNc1nccc(N2CCC(Oc3ccc([C@H](C)NC(=O)NCC)cc3)C2)c1F (some centres unmarked); 6.93
CC(=O)NC(C)c1ccc(CN2CCc3c(cccc3C(F)F)C2)cc1 (centres unmarked); 6.16
COCC1CCC2(CC1)OC(=O)C(c1c(C)ccc(-c3ccc(Cl)cc3)c1C)=C2O (centres unmarked); 6.19
CC(=O)N[C@@H](C)c1ccc(O[C@@H]2CCN(c3cccc(N4CCCC4C)n3)C2)cc1 (some centres unmarked); 6.88
CCNC(=O)C(C)c1ccc(C#Cc2cnc(OC(C)C)nc2)cc1 (centres unmarked); 6.34

A = CC(C(=O)NC[C@H](C)O)c1ccc(O[C@@H]2CCN(c3ccc(OCC4CC4(F)F)cn3)C2)cc1 (some centres unmarked)
B = C[C@H](NC(=O)c1cnn(C)c1)c1ccc(O[C@@H]2CCN(c3ccc(OCC4CC4)cc3)C2)cc1
// query Lowest pIC50? choose A or B Reply briefly: the label of your chosen item.
// result A

* * *

pIC50: −log10 of the molar value.
Record set: pIC50 | UniProt O00763 | literature, multiple sources.
attribute.measured: pIC50

Sample answers from the record:
CC(=O)NC(C)Cc1ccc(C#Cc2ccc(C(=O)N3CCN(C)CC3)cc2)cc1 (stereo not shown); 4.95
CCCOc1ccc(C#Cc2ccc(C(C)C(=O)NCC)cc2)c(C)c1 (stereo not shown); 7.05
CC(=O)NC(C)c1ccc(CN2CCc3c(ccc(OC4CCC4)c3Cl)C2)cc1 (stereo not shown); 7.10
Cc1cc(C)c(-c2ccc(Cl)cc2)cc1C1=C(O)C2(CCCCC2)CC1=O; 6.90
COC(=O)CN(C)c1nccc(C#Cc2ccc(CC(C)NC(C)=O)cc2)n1 (stereo not shown); 4.99
CC(=O)N[C@@H](C)c1ccc(OC2CCN(c3ccc(C4CC4)cn3)C2)cc1 (stereo partly shown); 6.14
CCNC(=O)C(C)c1ccc(C#Cc2ccc(OCC)nc2)cc1 (stereo not shown); 6.25
CCCOc1ccc(C#Cc2ccc(C(C)C(=O)NCC)cc2)cc1 (stereo not shown); 7.15
CCOc1ccc(C#Cc2ccc(CCNC(C)=O)nc2)cc1; 5.14
CCC1CCC2(CC1)CC(=O)C(c1cc(-c3ccc(Cl)cc3)ccc1C)=C2O (stereo not shown); 6.25

A = CC(=O)NC(C)Cc1ccc(C#Cc2ccc(C(=O)NC3CCCC3)cc2)cc1 (stereo not shown)
B = C[C@H](NC(=O)CC#N)c1ccc(CN2Cc3ccc(OCC4CC4(F)F)cc3C(F)C2)cc1 (stereo partly shown)
// query Out of A and B , name the one with the higher pIC50. Reply briefly: the label of your chosen item.
// result B
(B: 7.35, A: 5.80)

I = C[C@H](NC(=O)C1CC1)c1ccc(CN2CCc3c(Br)cccc3C2)cc1
II = CC(=O)N[C@@H](C)c1ccc(C2CN(c3ncnc(OCC4CC4(F)F)c3F)C2)cc1 (stereo partly shown)
// query Lowest pIC50? choose I or II Reply briefly: the label of your chosen item.
// result II

1 = C[C@H](NC(=O)c1cnn(C)c1Cl)c1ccc(OC2CCN(c3ccnc(OCC4CC4)c3)C2)cc1 (stereo partly shown)
2 = CC(=O)NC(C)Cc1ccc(C#Cc2ccc(-n3cccc3)cc2)cc1 (stereo not shown)
3 = CCOc1ccc(C#Cc2ccc(C(C)C(=O)Nc3ccccc3)cc2)cc1 (stereo not shown)
// query Rank by pIC50 (largest to smallest). Your reply should list the labels following the order given in the request.
// result 3, 1, 2
